We begin with a simple list: items and their reported apparent KD of K4 kissing-loop reporter.
System: K4 kissing-loop RNA reporter;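 note: bound reporter read as fluorescence of individual clusters on recovered sequencing chips by microscopy, with normalized cluster intensities fitted with a binding model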
Assay: apparent KD of K4 kissing-loop reporter; higher = weaker reporter binding
Conditions: Eterna round: R107; input ligand: FMN 200 uM
I only need the number, in nM, no unit after it.

Q: I have this sequence here, UGAUAGGACAGAAGGAGCGGUAGUGAUGUUGCCAAAAGAAUAAGGUGUCAAAAGACACCCUACCAGGUAGGUCGCUGUCCUAUCU , and I need its recorded apparent KD of K4 kissing-loop reporter.
A: 346

Q: What about this sequence? UGUAUGGACUGAAGGAGCGGUAGAUAAACUGAGUGAUGUUCGGCAGAUAAAGGCGCAAGCCACCAGGUAGGUCGCAGUCCAUACU [KL-SSArg B3]
A: 381

Q: What about this sequence? AGGGAUGUUAAAGGAUAUAGAAAGUGAUGUUAGAAAGUGAGUGAUGUUGAUGUUAGUGAUGUUAUGUUAGAAGGUUAACAAAACG [a]
A: 256

Q: What about this sequence? AAAUUUAAUAUAUUUAAUUAAUUAUGUGAUACCAGACAUUUAUAAGUCCCUUGGCAGCACUUUGCAGUGAUGUUGCUUAUAAUAA [JR_SSTheophyA_Sub014]
A: 88.8

Q: What about this sequence? GCGCGUCAUGUCAGCGGUGACUACGUCGAUACCAGCAGGGAAACCUGCCCUUGGCAGCGACGCGCUGGAGUGAUGUUCCGACGGA [#2 Exclusion - Theophylline A Attempt #6 (HarryS)]
A: 434

Q: What about this sequence? GGGUGGCAGGCGGCCGCCACUCUUAGCAGCCAGUGAGUGAUGUUCGUGGCGGAAGAAUGUUCGUAGAGGACCGGGUUUGUUGUUC [Same State Tryptophan B GF 21]
A: 262

Q: What about this sequence? GCUAUGGUAGGAAGGAGCGCUUAUUCAUUAAUAAGAGUGAUGUUCGAUAAUGAAUAUUUAUAGCAGGUAGGUCGCCUACUAUAGC [Arginine B K4 2]
A: 300

Q: What about this sequence? UGAUAGGACAGAAGGAGCGGGCUAGUCAAAGACUAGCAAACGUUAAUAACAGGAGUGAUGUUCCAGGUAGGUCGCUGUCCUAUCU [ArgBX 25 #SwitchBubble #StaticStem]
A: 136

Q: What about this sequence? UGAGUGAUGUUCAAGGACUAGAUCUAAAUAAAGGAUAUAGCAUACGCUAGAAGGUUAAAAUUUCUGGAUCCCAGUUUAAACCUUU [theeternabot_sameState_KL_FMN_A_49]
A: 246

Q: What about this sequence? UAAUAUAAUCUGUCGUAAACAAUAAUUAGUCAGGAUAUCGUAUAUUCGAGAAGGGACACUAUCUAGUGAUGUUAGAUAUUUCGUU [JR_SSFMNA_Sub026]
A: 45.5

Q: What about this sequence? GCAGGACGAGGAGGAGGAUGAAUUACUGAAGGAGCGCAUAUUUUUGCAGGUAGGUCGCGGUAAACAAGUAUAGUGAUGUUAUAUA [SSArgA.M]
A: 415

Q: What about this sequence? CCGAAGAACCAGUGAUGUUGGUUGACUAGACAGGAUAUGAGCAACAUCAGAAGGGUCUGGCUUCGGGAGAGAGUCGCGCUGACCU [Anditebier]
A: 208

----------
Tested on: MS2 coat protein
Assay: apparent KD of MS2 coat protein; designed switch direction (-1 OFF switch, 1 ON switch): 1; higher = weaker reporter binding
Conditions: Eterna round: R95; input ligand: microRNA oligo, concentration not stated
measure.name: apparent KD of MS2 coat protein (nM)
I only need the number, in nM, no unit after it.

Reference set (5 entries):
AGUCCAGCAUGAGCUGGACAAAAGCAUGUACAUGAGGAUCACCCAUGUUCAUGUACAAGCUUUUUGCUCGUCUUAAG [Mat - hsa-mir-208a - Mod of JL - 63] (puzzle: Sensor for hsa-mir-208a) : 18
UUAUAACAUGAGGAUCACCCAUGUCAACAAAGUCGAGGAUAUGGGCAUAGAUUAUAAGAACCAGAAGGCGAAUAUG [Mat - Same State 1 - Mod of UCT - D41] (puzzle: Same State 1) : 11.3
AACAAUCUAUCUGAGGAUAUCAUGAGAAGAACAUGAGGAUCACCCAUGUGCAGGAAAACUGCAUAUGAGAAGGCAGAUAGAUUGG [Mat - Same State 2 - Mod - D18] (puzzle: Same State 2) : 621
GUGGCCCAGGCACAGGAUAUGUUUCUCGUAACAUGAGGAUCACCCAUGUGCCUAUGAGAUAUAAUGCAGAAGGGUGCACGCCACG [Mat - Same State 2 - Mod of UCT - D80] (puzzle: Same State 2) : 68.2
GUAAAACAUGAGGAUCACCCAUGUAAUAAUAUGGGAGGAUAUCUGAUUUAAUUUAAUUUAAGAGAAGGCCUAAAUG [Mat - Same State 1 - Mod of Eli - D58] (puzzle: Same State 1) : 318

Q: I have this sequence here, CGGCUUGUACAUGAGGAUCACCCAUGUAUGUACAAGUUUUUGCUCGUCUUAUAAAUACGAUCUACCGAAAGGUAGAU [BIOPHYS241_ElaineNg_1] (puzzle: Sensor for hsa-mir-208a version 2) , and I need its recorded apparent KD of MS2 coat protein.
A: 18.7

Q: What about this sequence? UGGAUCUAGGCUUGCCUGGGUCCAUGUUGACAUGAGGAUCACCCAUGUGUAUUUUUUUUGCUUUUUGUUUGUCAACA [JL A Humble Attempt mod 4] (puzzle: Sensor for hsa-mir-208a)
A: 16.7

Q: What about this sequence? GAAAAGGCGACGCAGGAUAUGAAAGGUGAAACAUGAGGAUCACCCAUGUGCUACCUUCCGAUAAAUCAGAAGGGCGACGCCUAGA [Azaanre] (puzzle: Same State 2)
A: 9.79

Q: What about this sequence? CGUAGGUGGCUGGAGGAUAUUCGAGUGGUAACAUGAGGAUCACCCAUGUGUCGCGCGGUACAUGAGGAGAAGGCUAGCGGCCUGC (puzzle: Same State 2)
A: 118

Q: What about this sequence? GUAGAUAUAACGGAGGAUAUUCAAUGAGAGACAUGAGGAUCACCCAUGUAAGAGUGAGAUGAUAGGAAGAAGGCUGAGAGAGAUG [Altered State 2-9 - Jieux - Same State 2] (puzzle: Same State 2)
A: 139
